# system_tested: RAC-alpha serine/threonine-protein kinase (Homo sapiens)
# protocol_notes: Inhibition of human recombinant AKT1 expressed in insect cells incubated for 60 mins measured at apparent ATP Km level by kinase ADP-FP assay
measure_name: IC50 (nM)

1. C[C@@H]1CC(=O)Nc2ncnc(N3CCC(c4nc(CCC(F)(F)F)cn4CCN4CCCC4)CC3)c21 = 5
2. C[C@@H]1CC(=O)Nc2ncnc(N3CCC(c4nc(-c5ccc(F)c(C(F)(F)F)c5)cn4CCN4CCCC4)CC3)c21 = 3

(A) C[C@@H]1CC(=O)Nc2ncnc(N3CCC(c4nc(C5CCOCC5)cn4CCN4CCCC4)CC3)c21
(B) C[C@@H]1CC(=O)Nc2ncnc(N3CCC(c4nc(C(F)(F)F)cn4CCN4CCCC4)CC3)c21
Request: // pick larger IC50 from pair: A vs B Indicate your choice by writing its label.
Result: B
(B: 11 nM, A: 4 nM)

###

# protocol_notes: Aqueous solubility in pH 7.4 buffer
# Type: physicochemical
measure_name: solubility (µg/mL)

1) C[C@@H]1CC(=O)Nc2ncnc(N3CCC(c4nc(C(F)(F)F)cn4CCN4CCCC4)CC3)c21 = 1860

(A) C[C@@H]1CC(=O)Nc2ncnc(N3CCC(c4nc(-c5ccc(F)c(C(F)(F)F)c5)cn4CCN4CCCC4)CC3)c21
(B) C[C@@H]1CC(=O)Nc2ncnc(N3CCC(c4nc(CCC(F)(F)F)cn4CCN4CCCC4)CC3)c21
Request: Quick check, higher solubility between A and B ? Provide the label of your selected option as the answer.
Result: B
(B: 990 µg/mL, A: 35 µg/mL)

###

# protocol_notes: Cmax in P-gp and BCRP knockout mouse at 2.5 mg/kg, po by LC-MS/MS method
# Assay type: ADME, organism-based
# Design: dose 2.5 mg/kg, route oral
# test_settings: in vivo
measure_name: Cmax (ng/mL)

(A) C[C@@H]1CC(=O)Nc2ncnc(N3CCC(c4nc(C5CCOCC5)cn4CCN4CCCC4)CC3)c21
(B) C[C@@H]1CC(=O)Nc2ncnc(N3CCC(c4nc(CCC(F)(F)F)cn4CCN4CCCC4)CC3)c21
Request: Decide: A or B , by lowest recorded Cmax. Label of pick, please.
Result: B
(B: 109 ng/mL, A: 189 ng/mL)

###

# protocol_notes: Lipophilicity, log P of the compound
# Format: physicochemical
# test_settings: octanol/water
measure_name: logP

(P) C[C@@H]1CC(=O)Nc2ncnc(N3CCC(c4nc(C5CCOCC5)cn4CCN4CCCC4)CC3)c21
(Q) C[C@@H]1CC(=O)Nc2ncnc(N3CCC(c4nc(-c5ccc(F)c(C(F)(F)F)c5)cn4CCN4CCCC4)CC3)c21
(R) C[C@@H]1CC(=O)Nc2ncnc(N3CCC(c4nc(C(F)(F)F)cn4CCN4CCCC4)CC3)c21
(S) C[C@@H]1CC(=O)Nc2ncnc(N3CCC(c4nc(CCC(F)(F)F)cn4CCN4CCCC4)CC3)c21
Request: Hello, I need these entries ordered by logP, highest reading first. Thanks! Response format: the labels, sorted as the prompt asks.
Result: Q, S, R, P

###

# protocol_notes: AUC (0 to 24 hrs) in Sprague-Dawley rat at 5 mg/kg, po by LC-MS/MS method
# Format: ADME, organism-based
# Design: dose 5 mg/kg, time < 24 hr, route oral
# test_settings: in vivo
measure_name: AUC(0-t) at 24 h (ng·h/mL)

(A) C[C@@H]1CC(=O)Nc2ncnc(N3CCC(c4nc(C(F)(F)F)cn4CCN4CCCC4)CC3)c21
(B) C[C@@H]1CC(=O)Nc2ncnc(N3CCC(c4nc(CCC(F)(F)F)cn4CCN4CCCC4)CC3)c21
(C) C[C@@H]1CC(=O)Nc2ncnc(N3CCC(c4nc(C5CCOCC5)cn4CCN4CCCC4)CC3)c21
Request: Which order do the above compounds take when sorted by rising AUC(0-t) at 24 h? Smallest first. List the labels, following the order given in the request.
Result: C, B, A
(C: 173 ng·h/mL, B: 638 ng·h/mL, A: 24100 ng·h/mL)

###

# protocol_notes: Oral bioavailability in Sprague-Dawley rat at 5 mg/kg by LC-MS/MS method
# Format: ADME, organism-based
# test_settings: in vivo
measure_name: bioavailability (%)

(I) C[C@@H]1CC(=O)Nc2ncnc(N3CCC(c4nc(C5CCOCC5)cn4CCN4CCCC4)CC3)c21
(II) C[C@@H]1CC(=O)Nc2ncnc(N3CCC(c4nc(CCC(F)(F)F)cn4CCN4CCCC4)CC3)c21
Request: Which value of bioavailability is smaller, the one for I or the one for II ? Give the label under which the chosen entry appears.
Result: I
(I: 14%, II: 55%)

###

# system_tested: RAC-alpha serine/threonine-protein kinase (Homo sapiens, UniProt P31749)
# Sequence (P31749 whole entry): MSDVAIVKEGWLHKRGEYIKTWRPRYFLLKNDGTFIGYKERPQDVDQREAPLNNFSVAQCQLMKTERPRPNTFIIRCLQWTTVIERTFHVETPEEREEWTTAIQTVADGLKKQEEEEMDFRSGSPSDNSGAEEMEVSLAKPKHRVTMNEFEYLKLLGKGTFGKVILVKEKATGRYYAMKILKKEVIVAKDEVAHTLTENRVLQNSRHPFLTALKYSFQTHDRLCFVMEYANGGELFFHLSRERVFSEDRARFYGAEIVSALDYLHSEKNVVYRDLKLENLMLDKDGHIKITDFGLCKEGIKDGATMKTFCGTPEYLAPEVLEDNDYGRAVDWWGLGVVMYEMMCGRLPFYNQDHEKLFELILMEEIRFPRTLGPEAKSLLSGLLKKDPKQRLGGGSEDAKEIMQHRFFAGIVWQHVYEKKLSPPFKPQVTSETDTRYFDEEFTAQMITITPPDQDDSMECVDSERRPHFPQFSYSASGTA
# protocol_notes: Inhibition of AKT1 in human U87MG cells assessed as reduction in GSK3beta Ser9 phosphorylation incubated for 1 hr by alpha screen Surefire assay
# Assay type: cell-based
measure_name: IC50 (nM)

1. C[C@@H]1CC(=O)Nc2ncnc(N3CCC(c4nc(CCC(F)(F)F)cn4CCN4CCCC4)CC3)c21 = 92
2. C[C@@H]1CC(=O)Nc2ncnc(N3CCC(c4nc(-c5ccc(F)c(C(F)(F)F)c5)cn4CCN4CCCC4)CC3)c21 = 39

(P) C[C@@H]1CC(=O)Nc2ncnc(N3CCC(c4nc(C(F)(F)F)cn4CCN4CCCC4)CC3)c21
(Q) C[C@@H]1CC(=O)Nc2ncnc(N3CCC(c4nc(C5CCOCC5)cn4CCN4CCCC4)CC3)c21
Request: Given the listed items, does P or Q have the lesser reported IC50? Answer with the label corresponding to your selection.
Result: Q

###

# system_tested: Voltage-gated inwardly rectifying potassium channel KCNH2 (Homo sapiens, UniProt Q12809)
# Sequence (Q12809 whole entry): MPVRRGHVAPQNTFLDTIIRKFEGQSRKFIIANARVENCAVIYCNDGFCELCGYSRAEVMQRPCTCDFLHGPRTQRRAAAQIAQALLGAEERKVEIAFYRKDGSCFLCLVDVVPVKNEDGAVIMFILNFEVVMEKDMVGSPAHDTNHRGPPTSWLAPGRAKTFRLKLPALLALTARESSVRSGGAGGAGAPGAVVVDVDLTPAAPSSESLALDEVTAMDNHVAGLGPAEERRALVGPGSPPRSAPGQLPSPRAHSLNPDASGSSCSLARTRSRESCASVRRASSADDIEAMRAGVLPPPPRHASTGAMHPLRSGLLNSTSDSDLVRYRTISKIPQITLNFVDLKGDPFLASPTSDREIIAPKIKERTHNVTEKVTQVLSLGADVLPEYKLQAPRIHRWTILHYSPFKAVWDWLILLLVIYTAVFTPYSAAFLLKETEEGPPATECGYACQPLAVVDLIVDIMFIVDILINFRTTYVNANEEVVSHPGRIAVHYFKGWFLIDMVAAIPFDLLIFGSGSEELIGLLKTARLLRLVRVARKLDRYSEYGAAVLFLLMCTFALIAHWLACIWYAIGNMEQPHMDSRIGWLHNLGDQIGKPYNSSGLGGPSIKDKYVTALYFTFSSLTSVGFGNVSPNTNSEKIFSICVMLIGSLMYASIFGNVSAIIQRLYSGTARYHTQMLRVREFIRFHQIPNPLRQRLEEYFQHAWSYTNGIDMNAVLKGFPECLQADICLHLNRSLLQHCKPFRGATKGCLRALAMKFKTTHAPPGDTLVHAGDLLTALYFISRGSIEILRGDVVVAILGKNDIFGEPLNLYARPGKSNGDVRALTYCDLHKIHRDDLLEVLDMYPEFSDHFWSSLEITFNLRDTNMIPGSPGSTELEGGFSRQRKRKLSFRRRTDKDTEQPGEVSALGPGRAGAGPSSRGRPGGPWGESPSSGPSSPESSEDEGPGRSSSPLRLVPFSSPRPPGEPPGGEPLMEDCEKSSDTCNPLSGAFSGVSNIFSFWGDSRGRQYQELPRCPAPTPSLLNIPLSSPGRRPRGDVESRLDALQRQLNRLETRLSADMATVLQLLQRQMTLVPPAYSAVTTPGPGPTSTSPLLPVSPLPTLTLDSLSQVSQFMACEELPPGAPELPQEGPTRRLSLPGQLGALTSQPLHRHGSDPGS
# protocol_notes: Inhibition of human ERG
Below, each of the compounds is paired with its reported INH value.
Give the quantity in µM, number only.

1) C[C@@H]1CC(=O)Nc2ncnc(N3CCC(c4nc(-c5ccc(F)c(C(F)(F)F)c5)cn4CCN4CCCC4)CC3)c21 = 1.74

In the following, a different compound is considered.
Request: Would you mind telling me what INH value was observed for "C[C@@H]1CC(=O)Nc2ncnc(N3CCC(c4nc(CCC(F)(F)F)cn4CCN4CCCC4)CC3)c21" ?
Result: 18.5

###

# protocol_notes: AUC (0 to 24 hrs) in wild type mouse at 2.5 mg/kg, po by LC-MS/MS method
# Format: ADME, organism-based
# Design: time < 24 hr, dose 2.5 mg/kg, route oral
# test_settings: in vivo
measure_name: AUC(0-t) at 24 h (ng·h/mL)

(I) C[C@@H]1CC(=O)Nc2ncnc(N3CCC(c4nc(CCC(F)(F)F)cn4CCN4CCCC4)CC3)c21
(II) C[C@@H]1CC(=O)Nc2ncnc(N3CCC(c4nc(C5CCOCC5)cn4CCN4CCCC4)CC3)c21
Request: When their AUC(0-t) at 24 h values are compared, which is larger, I or II ? # answer = label of selected item
Result: I

###

# protocol_notes: Volume of distribution at steady state in Sprague-Dawley rat at 10 mg/kg, iv or 5 mg/kg, po by LC-MS/MS method
# Type: ADME, organism-based
# test_settings: in vivo, read-out: Vdss
measure_name: Vd (L/kg)

1) C[C@@H]1CC(=O)Nc2ncnc(N3CCC(c4nc(C5CCOCC5)cn4CCN4CCCC4)CC3)c21 = 13.8

(a) C[C@@H]1CC(=O)Nc2ncnc(N3CCC(c4nc(CCC(F)(F)F)cn4CCN4CCCC4)CC3)c21
(b) C[C@@H]1CC(=O)Nc2ncnc(N3CCC(c4nc(C(F)(F)F)cn4CCN4CCCC4)CC3)c21
Request: Would you let me know which has the greater Vd value, a or b ? Choose, then provide that item's label.
Result: a
(a: 11.6 L/kg, b: 0.65 L/kg)

###

# protocol_notes: Clearance in Sprague-Dawley rat at 10 mg/kg, iv by LC-MS/MS method
# Assay type: ADME, organism-based
# test_settings: in vivo
measure_name: clearance (mL/min/kg)

1. C[C@@H]1CC(=O)Nc2ncnc(N3CCC(c4nc(CCC(F)(F)F)cn4CCN4CCCC4)CC3)c21 = 74

(I) C[C@@H]1CC(=O)Nc2ncnc(N3CCC(c4nc(C(F)(F)F)cn4CCN4CCCC4)CC3)c21
(II) C[C@@H]1CC(=O)Nc2ncnc(N3CCC(c4nc(C5CCOCC5)cn4CCN4CCCC4)CC3)c21
Request: Please let me know which one, I or II , has a lower measured clearance value. Mark your selection by writing its label.
Result: I
(I: 2.18 mL/min/kg, II: 64 mL/min/kg)

###

# protocol_notes: Cmax in wild type mouse at 2.5 mg/kg, po by LC-MS/MS method
# Format: ADME, organism-based
# Design: dose 2.5 mg/kg, route oral
# test_settings: in vivo
measure_name: Cmax (ng/mL)

(1) C[C@@H]1CC(=O)Nc2ncnc(N3CCC(c4nc(CCC(F)(F)F)cn4CCN4CCCC4)CC3)c21
(2) C[C@@H]1CC(=O)Nc2ncnc(N3CCC(c4nc(C5CCOCC5)cn4CCN4CCCC4)CC3)c21
Request: When 1 and 2 are compared, which has the higher number for Cmax? Pick one and reply with its label.
Result: 1
